# SYSTEM: SIRT1 (Homo sapiens, UniProt Q96EB6)
# ASSAY_NAME: Trp mass spectrometry assay of SIRT1 activity
# Type: biochemical
# REPORTED_CONDITIONS: Trp assay; concentration giving 150% activation of SIRT1
MEASURE: Trp EC1.5 (μM)

* Cc1nc2ccc(N3CC[C@H](F)C3)nn2c1C(=O)Nc1ccncc1F | A (EC1.5<1 μM)
* Cc1cnc(NC(=O)c2c(C)nc3c(OC[C@H](O)CO)cc(-c4ccccc4C(F)(F)F)nn23)s1 | A (EC1.5<1 μM)
* Cc1cccc(NC(=O)c2c(C)nc3ccc(-c4cccc(OC[C@H](O)CO)c4)nn23)n1 | A (EC1.5<1 μM)

---

# SYSTEM: SIRT1 (Homo sapiens)
# Sequence (Q96EB6 1-747): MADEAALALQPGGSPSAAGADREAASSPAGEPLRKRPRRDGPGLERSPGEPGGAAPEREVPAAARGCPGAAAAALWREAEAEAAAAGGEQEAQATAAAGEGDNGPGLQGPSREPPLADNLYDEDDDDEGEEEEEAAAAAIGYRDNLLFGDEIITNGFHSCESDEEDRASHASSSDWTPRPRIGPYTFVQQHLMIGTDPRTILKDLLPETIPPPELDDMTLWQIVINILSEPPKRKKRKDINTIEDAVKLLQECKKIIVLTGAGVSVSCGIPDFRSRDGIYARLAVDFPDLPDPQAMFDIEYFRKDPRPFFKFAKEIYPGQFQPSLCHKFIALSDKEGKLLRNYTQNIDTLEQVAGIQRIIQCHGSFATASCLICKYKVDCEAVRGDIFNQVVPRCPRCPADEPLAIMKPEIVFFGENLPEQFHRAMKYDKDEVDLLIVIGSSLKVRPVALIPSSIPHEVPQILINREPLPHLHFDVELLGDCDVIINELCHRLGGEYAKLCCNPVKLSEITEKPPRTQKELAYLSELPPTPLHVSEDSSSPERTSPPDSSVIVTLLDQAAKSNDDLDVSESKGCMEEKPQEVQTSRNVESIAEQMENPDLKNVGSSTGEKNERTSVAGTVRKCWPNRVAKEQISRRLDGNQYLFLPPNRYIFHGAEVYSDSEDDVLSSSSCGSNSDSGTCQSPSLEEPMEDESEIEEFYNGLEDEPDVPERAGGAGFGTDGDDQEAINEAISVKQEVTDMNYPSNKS
# ASSAY_NAME: Trp mass spectrometry assay of SIRT1 activity
# Type: biochemical
# REPORTED_CONDITIONS: Trp assay; percent maximum fold activation; read-out: Trp % Fold Act
Assignment: determine reported Emax for the given molecules.

Exam item: I would be grateful if you could share the reported Emax for O=C(Nc1cccnc1)c1cnc2ccc(N3CCCC3C(F)(F)F)nn12 (stereo not shown) .
Marked response: ≥ 350%

Exam item: I would be grateful if you could share the reported Emax for "O=C(Nc1cnn2ccc(-c3ccccc3C(F)(F)F)nc12)c1ccccn1" .
Marked response: < 350%

Exam item: I would be grateful if you could share the reported Emax for Cc1cc(OCC(O)CO)nc(NC(=O)c2cnc3ccc(-c4ccccc4Cl)nn23)n1 (stereo not shown) .
Marked response: < 350%

Exam item: I would be grateful if you could share the reported Emax for "Cc1cccc(NC(=O)c2c(C)nc3ccc(-c4ccccc4OC[C@H](O)CO)nn23)n1" .
Marked response: ≥ 350%

---

# SYSTEM: SIRT1 (Homo sapiens)
# ASSAY_NAME: TAMRA based mass spectrometry assay of SIRT1 activity
# Assay type: biochemical
# REPORTED_CONDITIONS: TAMRA assay; concentration giving 150% activation of SIRT1
MEASURE: TAMRA EC1.5 (μM)

- N#Cc1ccccc1-c1ccc2ncc(NC(=O)c3ncccn3)n2n1 [Compound 331]: B (EC1.5 1-25 μM)
- Cc1cnc(NC(=O)c2c(C)nn3ccc(-c4ccccc4C(F)(F)F)nc23)c(C)n1 [Compound 753]: B (EC1.5 1-25 μM)
- O=C(Nc1cnn2ccc(-c3ccccc3OC(F)(F)F)nc12)c1cc(O)ncn1 [Compound 776]: B (EC1.5 1-25 μM)
- Cc1cccc(C(=O)Nc2cnc3ccc(-c4ccccc4C(F)(F)F)nn23)n1 [Compound 234]: A (EC1.5<1 μM)
- O=C(Nc1cnn2ccc(-c3ccccc3C(F)(F)F)nc12)c1cccc(N2CCOCC2)n1 [Compound 256]: A (EC1.5<1 μM)
- Cc1cc(NC(=O)c2c(C)nn3ccc(-c4ccccc4C(F)(F)F)nc23)ccn1 [Compound 629]: A (EC1.5<1 μM)

Then there is this compound:
Exam item: I would be grateful if you could share the reported TAMRA EC1.5 (μM) for N#Cc1ccccc1-c1ccc2ncc(C(=O)Nc3ccncc3)n2n1 [Compound 203] .
Marked response: B (EC1.5 1-25 μM)
